# Tested on: RAW264.7
# protocol_notes: Effect on iPGJ2 level in LPS-induced mouse RAW264.7 cells at 1 uM by ELISA
# Type: functional
result_type: Activity (pg/mL)

record_smiles: CCCCC/C=C\C/C=C\C/C=C\C/C=C\CCCC(=O)N[C@H](C)C(=O)O
result_type: Activity
quantity_unit: pg/mL
observed: 1496
--
record_smiles: CCCCCCCCCCCCCCCC(=O)N[C@H](C)C(=O)O
result_type: Activity
quantity_unit: pg/mL
observed: 281
--
record_smiles: CCCCCCCCCCCCCCCC(=O)N[C@@H](C)C(=O)O
result_type: Activity
quantity_unit: pg/mL
observed: 261
--
record_smiles: CCCCC/C=C\C/C=C\C/C=C\C/C=C\CCCC(=O)N[C@@H](C)C(=O)O
result_type: Activity
quantity_unit: pg/mL
observed: 2345
--
record_smiles: CCCCC/C=C\C/C=C\C/C=C\CCCCC(=O)NCC(=O)O
result_type: Activity
quantity_unit: pg/mL
observed: 5040
--
record_smiles: CCCCCCCCCCCCCCCCCC(=O)NCC(=O)O
result_type: Activity
quantity_unit: pg/mL
observed: 201
--
record_smiles: CCCCC/C=C\C/C=C\C/C=C\C/C=C\CCCC(=O)NCC(=O)O
result_type: Activity
quantity_unit: pg/mL
observed: 40407
--
record_smiles: CCCCCCCCCCCCCCCC(=O)NCC(=O)O
result_type: Activity
quantity_unit: pg/mL
observed: 219

----------
Listed next: entries and their corresponding Cell number.
# Test system: RAW264.7
# protocol_notes: Antiproliferative activity against LPS-induced mouse RAW264.7 cells assessed as number of cells at 10 uM after 48 hrs
# Assay type: functional
result_type: Cell number

record_smiles: CCCCCCCCCCCCCCCC(=O)NCC(=O)O
result_type: Cell number
observed: 5108
//
record_smiles: CCCCC/C=C\C/C=C\CCCCCCCCCC(=O)NCC(=O)O
result_type: Cell number
observed: 609
//
record_smiles: CCCCC/C=C\C/C=C\CCCCCCCC(=O)N[C@@H](C)C(=O)O
result_type: Cell number
observed: 621
//
record_smiles: CCCCC/C=C\C/C=C\CCCCCCCCCC(=O)N[C@@H](C)C(=O)O
result_type: Cell number
observed: 605
//
record_smiles: CCCCC/C=C\C/C=C\C/C=C\CCCCC(=O)NCC(=O)O
result_type: Cell number
observed: 6602
//
record_smiles: CCCCC/C=C\C/C=C\C/C=C\C/C=C\CCCCCC(=O)N[C@@H](C)C(=O)O
result_type: Cell number
observed: 618

----------
# System: RAW264.7
# protocol_notes: Antiproliferative activity against LPS-induced mouse RAW264.7 cells assessed as number of cells at 10 uM after 48 hrs
# Assay type: functional

record_smiles: CCCCCCCC/C=C\CCCCCCCC(=O)N[C@@H](C)C(=O)O
Cell number: 422
//
record_smiles: CCCCC/C=C\C/C=C\C/C=C\C/C=C\CCCC(=O)N[C@@H](C)C(=O)O
Cell number: 2110
//
record_smiles: CCCCC/C=C\C/C=C\C/C=C\C/C=C\CCCC(=O)NCC(=O)O
Cell number: 591
//
record_smiles: CCCCC/C=C\C/C=C\C/C=C\CCCCCCC(=O)N[C@@H](C)C(=O)O
Cell number: 637
//
record_smiles: CCCCCCCCCCCCCCCC(=O)N[C@@H](C)C(=O)O
Cell number: 432
//
record_smiles: CCCCCCCC/C=C\CCCCCCCC(=O)NCC(=O)O
Cell number: 425
//
record_smiles: CCCCC/C=C\C/C=C\C/C=C\C/C=C\CCCCCC(=O)NCC(=O)O
Cell number: 3574
//
record_smiles: CCCCC/C=C\C/C=C\CCCCCCCC(=O)NCC(=O)O
Cell number: 713
//
record_smiles: CCCCC/C=C\C/C=C\C/C=C\CCCCCCC(=O)NCC(=O)O
Cell number: 647
//
record_smiles: CCCCC/C=C\C/C=C\C/C=C\CCCCC(=O)N[C@@H](C)C(=O)O
Cell number: 2696

----------
# Test system: RAW264.7
# protocol_notes: Ratio of iPGJ2 to iPGE in LPS-induced mouse RAW264.7 cells at 10 uM by ELISA
# Type: functional
Label rule, in plain words: Ratio of 3 and up is criterion met, under 3 is criterion not met.

compound: CCCCC/C=C\C/C=C\C/C=C\CCCCC(=O)NCC(=O)O
group: criterion met
--
compound: CCCCC/C=C\C/C=C\C/C=C\C/C=C\CCCC(=O)N[C@H](C)C(=O)O
group: criterion met
--
compound: CCCCCCCCCCCCCCCC(=O)N[C@@H](C)C(=O)O
group: criterion met
--
compound: CCCCCCCCCCCCCCCCCC(=O)NCC(=O)O
group: criterion not met
--
compound: CCCCCCCCCCCCCCCC(=O)N[C@H](C)C(=O)O
group: criterion met
--
compound: CCCCC/C=C\C/C=C\C/C=C\C/C=C\CCCC(=O)N[C@@H](C)C(=O)O
group: criterion met
--
compound: COc1ccc2cc([C@H](C)C(=O)O)ccc2c1 [NAPROXEN]
group: criterion not met
--
compound: CCCCC/C=C\C/C=C\C/C=C\C/C=C\CCCC(=O)NCC(=O)O [ARACHIDONOYL GLYCINE]
group: criterion met

----------
# System: RAW264.7
# protocol_notes: Ratio of iPGJ2 to iPGE in LPS-induced mouse RAW264.7 cells at 1 uM by ELISA
# Assay type: functional
So basically: Ratio at 9 or higher? That is TRUE. Lower than 9? That is FALSE.

record_smiles: CCCCCCCCCCCCCCCC(=O)NCC(=O)O
group: FALSE
//
record_smiles: CCCCC/C=C\C/C=C\C/C=C\C/C=C\CCCC(=O)NCC(=O)O
group: TRUE
//
record_smiles: CCCCC/C=C\C/C=C\C/C=C\C/C=C\CCCC(=O)N[C@H](C)C(=O)O
group: TRUE
//
record_smiles: CCCCC/C=C\C/C=C\C/C=C\CCCCC(=O)NCC(=O)O
group: TRUE
//
record_smiles: CCCCCCCCCCCCCCCC(=O)N[C@H](C)C(=O)O
group: FALSE
//
record_smiles: CCCCCCCCCCCCCCCCCC(=O)NCC(=O)O
group: FALSE
//
record_smiles: CCCCCCCCCCCCCCCC(=O)N[C@@H](C)C(=O)O
group: FALSE

----------
# Lookup of reported Activity keyed by entry
# Tested on: RAW264.7
# protocol_notes: Effect on iPGE2 level in LPS-induced mouse RAW264.7 cells at 10 uM by ELISA
# Type: functional

record_smiles: CCCCCCCCCCCCCCCC(=O)N[C@H](C)C(=O)O
Activity (pg/mL): 319

record_smiles: CCCCCCCCCCCCCCCC(=O)N[C@@H](C)C(=O)O
Activity (pg/mL): 232

record_smiles: CCCCCCCCCCCCCCCCCC(=O)NCC(=O)O
Activity (pg/mL): 126
